Each recorded value in this set is attributed to PubChem BioAssay.

assay_procedure: growth suppression of yeast trafficking mutant, preliminary HTS, modulators of trafficking downstream of Golgi apparatus project, 1536-format plate, OD 615 nm (AID 637)
test_parameters: yeast transport mutant growth, absorbance 615 nm, 18 h; stronger effect = higher value
In this section we review reported inhibition values for a set of molecules.
Number only, in %; omit the unit.

Examples with answers:
{"molecule": "O=C(CCSc1ccccc1)N1CCOCC1", "unit_abbrev": "%", "inhibition": -2.13}
{"molecule": "Cc1nc(N2CCc3ccccc32)[nH]c(=O)c1CCC(C)C", "unit_abbrev": "%", "inhibition": 6.17}
{"molecule": "O=c1c[n+]([O-])c2ccccc2n1OCc1c(F)cccc1F", "unit_abbrev": "%", "inhibition": -1.59}
{"molecule": "COc1ccc(NC(=O)CS(=O)CC(=O)Nc2cc(Cl)ccc2OC)cc1 (stereo not given)", "unit_abbrev": "%", "inhibition": -3.67}
{"molecule": "O=C(NC(C(=O)c1ccccc1)n1ccc(=O)[nH]c1=O)c1ccccc1 (stereo not given)", "unit_abbrev": "%", "inhibition": 23.1}

// next item, inhibition requested
Please look up its inhibition: `O=C(O)CCc1ccc(-c2cccs2)n1CCC(=O)O`
-1.64

* * *

assay_procedure: OD615 S. cerevisiae growth inhibition, permissive medium, pilot counter-assay, permissive growth control for S. cerevisiae lifespan shortening project (AID 705)
test_parameters: OD615, 24 h, at 10 µM, stronger effect = higher value
Activity calls are given as the source filed them.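 The calls were made as follows: active = growth inhibition above 25% in both replicates, a cutoff set 3 SD above the mean; inconclusive = above 25% in only one replicate; inactive = the rest.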
endpoint: growth inhibition

Examples with answers:
{"compound": "Cc1cccc(N2CCN(C(c3cccs3)c3nnnn3C(C)(C)C)CC2)c1C (stereo not drawn)", "growth inhibition": "-10.2% (inactive)"}
{"compound": "CNc1nc(-c2ccc(Cl)cc2)cs1", "growth inhibition": "-5.83% (inactive)"}

// next item, growth inhibition requested
Please look up its growth inhibition: `CC(=O)NCC(=O)N(c1c(C)n(C)n(-c2ccccc2)c1=O)C1(C(=O)NC2CCCC2)CCCCC1`
10% (inactive)

* * *

assay_procedure: HUVEC growth inhibition – cell-based, human, primary screen (AID 575);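 also: 100% = median of untreated cell wells with 0.1% DMSO on each plate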
test_parameters: HUVEC proliferation, CellTiter-Glo luminescence, 72 h; at 10 µM; stronger effect = lower value
The source made the active and inactive calls.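 The calls were made as follows: active = viability at or below 30% in both replicate assays; inconclusive = viability at or below 30% in just one of the two assays; inactive = the rest.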
In this section we review reported viability values for a set of molecules.

Examples with answers:
{"molecule": "CCCOc1ccc(/C(O)=C2/C(=O)C(=O)N(CCCOC)C2c2ccncc2)cc1 (stereo not drawn)", "viability": "110% (inactive)"}
{"molecule": "CCOC(=O)CSc1nnc(Cn2nnc(-c3ccccc3)n2)n1CC", "viability": "107% (inactive)"}

// next item, viability requested
Please look up its viability: `COc1cccc(-c2cc(C(F)(F)F)n3ncc(C(=O)O)c3n2)c1`
117% (inactive)

* * *

assay_procedure: HUVEC growth inhibition – cell-based, human, primary screen (AID 575);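 also: 100% = median of untreated cell wells with 0.1% DMSO on each plate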
test_parameters: HUVEC proliferation, CellTiter-Glo luminescence, 72 h; at 10 µM; stronger effect = lower value
endpoint: viability (%)
Number only, in %; omit the unit.

Examples with answers:
{"molecule": "CCOC(=O)c1[nH]c2ccccc2c1NC(=O)C(C)(C)C", "viability / %": 80.6}
{"molecule": "CCc1nnc(NC(=O)NCN2C(=O)C3C4C=CC(C4)C3C2=O)s1 (configuration not stated)", "viability / %": 84.4}
{"molecule": "O=C(CCN1CCOCC1)Nc1cccc(Br)c1", "viability / %": 78.9}
{"molecule": "CCOc1ccc(C2C=C(c3ccc(F)cc3)Nc3ncnn32)cc1 (configuration not stated)", "viability / %": 81.2}
{"molecule": "CN1CCCN=C1COC(=O)C(O)(c1ccccc1)C1CCCCC1 (configuration not stated)", "viability / %": 95}
{"molecule": "O=C(Cn1cccc1C(=O)c1ccccc1)NCCN1CCOCC1", "viability / %": 111}
{"molecule": "O=C(NCc1ccccn1)C(C(=O)c1ccc(F)cc1)n1ccccc1=O (configuration not stated)", "viability / %": 97.9}
{"molecule": "Cc1ccccc1C(OCCN(C)C)c1ccccc1 (configuration not stated)", "viability / %": 98.9}

Please look up its viability: `CC(C)CCn1c(=O)c2ccccc2n2c(CN(C)Cc3ccccc3)nnc12`
70.3

Please look up its viability: `COc1ccc2cc(C#N)c(NC(C)C)nc2c1`
90.8

Please look up its viability: `CCN(CC)S(=O)(=O)c1ccc2c(c1)c(=O)c(C(=O)NCCOC)cn2C`
101

* * *

assay_procedure: viability gain of MRP-1-high H69AR cells under doxorubicin, pilot screen, MRP-1 activator project, CellTiter-Glo, duplicate (AID 807);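 also: compound pretreatment 18-22 h then 72 h combined with doxorubicin; 0% = doxorubicin alone and 100% = vehicle without doxorubicin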
test_parameters: H69AR viability with doxorubicin, CellTiter-Glo luminescence; at 10 µM; stronger effect = higher value
The source made the active and inactive calls.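 How the source made its calls: active means viability increase at or above a cutoff of the median across tested compounds plus 3 SD (cut at about 8.5% in these data, passing the limit was not always enough); inconclusive means some gains above the cutoff, reason not given; inactive means the rest.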
endpoint: viability increase

{"compound": "CCOC(=O)CCc1n[nH]c(=O)[nH]c1=O", "viability increase": "-0.23% (inactive)"}

Please look up its viability increase: `O=C(NCc1ccco1)c1ccc(Br)c(S(=O)(=O)N2CCCCC2)c1`
-2.69% (inactive)

Please look up its viability increase: Cc1cc(C)n(CC(O)Cn2c3ccccc3c3ccccc32)c(=O)n1 (stereo not given)
-2.44% (inactive)

* * *

assay_procedure: RAM signaling pathway blockade in yeast – S. cerevisiae, Pdr1DBD-CYC8 efflux-inhibited sensitized strain, primary screen (AID 1298);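 also: 0% = DMSO untreated cells without growth and 100% = 10 µM 1-NA-PP1 full growth; higher means more yeast growth rescued from 5-FOA killing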
test_parameters: S. cerevisiae cbk1-as DSE1-URA3 strain, 5-FOA growth OD615, 2 d; at 50 µM; stronger effect = higher value
endpoint: RAM network inhibition (%)
Number only, in %; omit the unit.

Examples with answers:
{"compound": "CCOC(=O)N1CCN(C(=O)CN(c2cccc(C(F)(F)F)c2)S(C)(=O)=O)CC1", "RAM network inhibition [%]": 4.83}
{"compound": "CS(=O)(=O)NCCSCc1ccc(Cl)cc1", "RAM network inhibition [%]": 4.47}

// next item, RAM network inhibition requested
Please look up its RAM network inhibition: CN1C(=O)C(O)(CC(=O)c2ccccn2)c2cc(Br)ccc21 (stereo not drawn)
3.11

* * *

assay_procedure: Restrictive medium S. cerevisiae growth inhibition, OD615, pilot screen of yeast lifespan reduction project, restrictive growth control (AID 706);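 also: modified DeaD lifespan yeast strain shifted to restrictive glucose medium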
test_parameters: OD615, 48 h, at 10 µM, stronger effect = higher value
In this section we review reported growth inhibition values for a set of compounds.
Number only, in %; omit the unit.

Examples with answers:
{"compound": "CCN(CC)CCN1C(=O)c2ccccc2NC1c1cccc(F)c1 (configuration not stated)", "growth inhibition [%]": 1.83}
{"compound": "O=C(Nc1ccc(N2CCCCC2)cc1)c1cncc(Br)c1", "growth inhibition [%]": 15.3}

Please look up its growth inhibition: `CCOC(=O)c1ccc(NC(=O)c2cccc(S(=O)(=O)N3CCOCC3)c2)cc1`
-4.13

Please look up its growth inhibition: `COc1cccc(C(=O)Nc2nnc(-c3ccc(Cl)cc3)o2)c1`
2.42

Please look up its growth inhibition: `CN(CCNC(=O)c1cc2c(=O)n(C)c3ccccc3c2n1C)Cc1ccccc1`
-7.87

Please look up its growth inhibition: `CCOC(=O)N1CCC(NC(=O)c2cc3c(C)nc4ccccc4c3o2)CC1`
-11.2

* * *

In this section we review reported viability values for a set of compounds.
assay_procedure: reversal of MRP1-mediated doxorubicin resistance, pilot screen, H69AR cells, doxorubicin co-treatment (AID 601)
test_parameters: H69AR cells, CellTiter-Glo, 72 h; compound alone cytotoxicity; at 10 µM
Number only, in %; omit the unit.

{"compound": "O=S1(=O)CC(N2CCOCC2)c2ccccc21 (stereo not drawn)", "viability (%)": 103}
{"compound": "COC(=O)C1=C(C)NC(=O)C1(NC(=O)CN1CCCC1=O)C(F)(F)F (stereo not drawn)", "viability (%)": 101}
{"compound": "CCn1c(SC)nc2c(c1=O)SC(C)C2 (stereo not drawn)", "viability (%)": 98.4}
{"compound": "CC(=O)c1cc(Cl)ccc1OC(=O)c1ccco1", "viability (%)": 89.2}
{"compound": "Cc1cc(C)n2cc(CSCc3ccco3)nc2n1", "viability (%)": 95.2}
{"compound": "Cc1cccc2cc(CN(CCN3CCCC3)C(=O)NC3CCCCC3)c(=O)[nH]c12", "viability (%)": 91}
{"compound": "Cc1cn([C@H]2C=C[C@@H](CO)O2)c(=O)[nH]c1=O", "viability (%)": 109}
{"compound": "Nc1cc(-c2ccccc2)ccc1O", "viability (%)": 73}

// next item, viability requested
Please look up its viability: `O=c1ccc2cc3c([nH]c4ccc(Br)cc43)oc-2c1O`
78.3

* * *

assay_procedure: SK-BR-3 cell growth inhibitors, pilot screen, 24 h, human (AID 572);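 also: compound exposure lasted between 18 and 24 h rather than exactly 24 h; 100% = carrier-treated control wells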
test_parameters: SK-BR-3 viability, CellTiter-Glo luminescence, at 10 µM, stronger effect = lower value
Entries whose viability is below 90% take yes (1); entries at or above 90% take no (0).

{"compound": "Cc1ccc(S(=O)(=O)NCCC(=O)OCn2nnc3ccccc3c2=O)cc1", "class_label": "no (0)"}

State whether 90% exceeds viability recorded for `CC(=O)Nc1cc2c(nc1C)nc(C)n2Cc1ccc(Br)cc1` .
yes (1)

State whether 90% exceeds viability recorded for `O=C(CCN1C(=O)COc2ccccc21)NCCCN1CCN(c2ccccc2F)CC1` .
no (0)

State whether 90% exceeds viability recorded for COc1ccc(OC)c(C2/C(=C(\O)c3ccc4c(c3)OCCO4)C(=O)C(=O)N2CCCN(C)C)c1 (configuration not stated) .
no (0)

State whether 90% exceeds viability recorded for `C[C@]12C=CC(=O)C=C1CC[C@H]1[C@@H]3C[C@@H](O)[C@](O)(C(=O)CO)[C@@]3(C)C[C@H](O)[C@@]12F` .
no (0)

State whether 90% exceeds viability recorded for CCCCCC1CC(CC(=O)O)C(=O)O1 (configuration not stated) .
no (0)

State whether 90% exceeds viability recorded for Cn1c(C(=O)N2CCCC(C(=O)NCCCc3ccccc3)C2)cc2sccc21 (configuration not stated) .
no (0)
